Value source: PubChem BioAssay

Entries and their measured z-score follow.
experimentDescription: growth of efflux-deficient E. coli DRC39 – strain DRC39, OD650, 24 h, E. coli filamentation inducers, primary screen (AID 1178);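 further: growth measured as culture turbidity by optical density at 650 nm; test concentration not given here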
details: E. coli DRC39 acrAB, higher = more signal, called active from +8 up or from −8 down
Lab note: record just the number, no unit beside it.

| molecule | z-score |
| --- | --- |
| O=C(NCCN1CCOCC1)[C@@H]1c2ccccc2C(=O)N(Cc2cc(F)cc(C(F)(F)F)c2)[C@H]1c1ccc(CO)cc1 | 0.552 |

Quickly give me recorded z-score for C=CCOC(=O)[C@H]1[C@@H]2C(=O)O[C@@H](c3ccccc3)[C@@H](c3ccccc3)N2[C@@H](c2ccc(OCCOC(=O)[C@@H]3C[C@@H]4C(=O)NCC(=O)N4[C@@H]3c3ccc(O)cc3)cc2)[C@]12C(=O)Nc1ccc(I)cc12
-0.641

Identify the reported z-score for the following entry. O=C1OCCC/C=C\[C@H]2OC34C=CCN(Cn5nnc6ccccc65)C(=O)[C@H]3N(CCCO)C(=O)[C@@H]4C12 (stereo partly drawn)
0.339

* * *

We begin with a simple list: items and their reported composite z-score.
measuredTarget: Left-right determination factor 2 (Homo sapiens) (UniProt O00292)
Sequence (O00292 whole entry, looked up): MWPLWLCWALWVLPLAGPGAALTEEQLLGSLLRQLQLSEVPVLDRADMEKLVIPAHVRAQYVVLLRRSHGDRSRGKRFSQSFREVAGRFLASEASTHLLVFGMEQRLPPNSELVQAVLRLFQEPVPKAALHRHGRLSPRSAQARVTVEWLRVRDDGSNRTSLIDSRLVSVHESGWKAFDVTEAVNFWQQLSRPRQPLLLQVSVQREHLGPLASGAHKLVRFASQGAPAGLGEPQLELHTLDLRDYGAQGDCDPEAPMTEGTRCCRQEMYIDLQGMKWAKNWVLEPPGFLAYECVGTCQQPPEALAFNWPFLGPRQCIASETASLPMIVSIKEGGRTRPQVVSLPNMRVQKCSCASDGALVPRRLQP
experimentDescription: small molecules binding LEFTY2 protein – biochemical, small-molecule microarray, 635 nm fluorescence scan, primary screen (AID 1110)
details: higher = more signal

Recorded composite z-score, per entry:
| molecularString | composite z-score |
| --- | --- |
| C#C[C@H](O[Si](C#CCCCCCC)(C(C)C)C(C)C)c1ccccc1 | -0.234 |
| Cc1ccc(S[C@]2(C(=O)NCC(C)C)CC(=O)N(Cc3ccccc3)[C@@H]2c2ccc(CO)cc2)cc1 | -1.83 |
| C=C[C@@H](C)[C@@H](OC(=O)Nc1ccc(OC)cc1)c1ccc(O)c2ccccc12 | 0.312 |
| O=C(NCCN1CCOCC1)[C@@H]1c2ccccc2C(=O)N(Cc2cc(F)cc(C(F)(F)F)c2)[C@H]1c1ccc(CO)cc1 | -1.61 |

Query compound follows.
Annotate the compound CCOC(=O)C[C@H]1[C@H](OC(=O)c2cc3ccccc3oc2=O)[C@@H](NC(=O)c2ccc3ccccc3c2)c2cc(OCCCO)ccc2N1C(=O)c1ccccc1 with its measured composite z-score.
0.129

* * *

experimentDescription: changes in parasitized red cell lysis, either direction – P. falciparum Indochina, OD700, 3 h, PSAC antagonist project, primary screen (AID 1156)
details: P. falciparum-infected erythrocytes, osmotic lysis, higher = more signal, called active from +8 up or from −8 down
Entries and their z-score values follow.
Answer with a bare number; do not write a unit.

| molecule | z-score |
| --- | --- |
| CCOC(=O)C[C@H]1[C@H](OC(=O)c2ccccc2-c2ccccc2)[C@@H](NC(=O)c2ccc(-c3ccccc3)cc2)c2cc(OCCCO)ccc2N1C(=O)c1ccccc1 | 1.02 |
| CC1(C)C(=O)C(c2ccccc2)=C2CN3C(=O)N(CCc4ccccc4)C(=O)C3(Cc3ccccc3)C=C21 (centres undefined) | 0.483 |
| CC(=O)NCCCC[C@@H]1NC(=O)[C@@H]2C[C@H](C(=O)NCCCCCC[N+](C)(C)C)[C@H](c3cccc(OCCO)c3)N2C1=O | -0.956 |
| COCC1=C([C@H](O)CCc2ccccc2)[C@H](CO)[C@@H]2C(=O)N(Cc3ccccc3)C(=O)[C@@H]2C1 | 0.23 |

Answer with the recorded z-score for the molecule listed here: CC(c1ccccc1)C(O)C1C=CC2C(=O)N(Cc3ccccc3)C(=O)C2N1n1cnnc1 (centres undefined)
0.0175

Answer with the recorded z-score for the molecule listed here: C[C@H]1C2[C@H](Cc3ccccc3)NC(=O)[C@]23C(=O)N[C@H](Cc2ccccc2)C(=O)N[C@H](Cc2ccccc2)C(=O)NC/C=C/CCC/C=C/C3[C@@H]2O[C@]12C (some centres undefined)
0.601

# return recorded z-score for input C=CCNC(=O)[C@H]1[C@@H]2C(=O)O[C@@H](c3ccccc3)[C@@H](c3ccccc3)N2[C@@H](c2ccc(OCCO)cc2)[C@]12C(=O)N(C(=O)OCCOC)c1ccc(C#CC3(O)CCCCCC3)cc12
0.0102

Check the records and state z-score for O=C1O[C@@H](c2ccccc2)[C@@H](c2ccccc2)N2[C@@H](c3ccc(O)cc3)[C@]3(C(=O)Nc4ccc(C#CCCO)cc43)[C@@H](C(=O)N3CCCCCCC3)[C@H]12
-0.69

Tell me measured z-score for O=C1O[C@H](c2ccccc2)[C@H](c2ccccc2)N2[C@H]1[C@@H](C(=O)N1CCCCCCC1)[C@]1(C(=O)Nc3ccc(C#CC4=CCCCC4)cc31)[C@H]2c1ccc(O)cc1 please.
0.0311

Return the recorded z-score value; entry: O=C(NCc1ccccc1)[C@@H]1c2ccccc2C(=O)N(Cc2cc(F)cc(C(F)(F)F)c2)[C@H]1c1ccc(CO)cc1
1.03

* * *

Reported composite Z-score values for a set of molecules
experimentDescription: probe aXIP binding to arrayed compounds – biochemical, NeuroSMM set, 635/667 nm fluorescence, primary screen (AID 1119);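 further: probe is the protein aXip251-270 applied at 1 µg/mL to compound-printed slides; binding of probe to printed compounds measured as 667 nm fluorescence plus signal to noise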
details: small-molecule microarray, higher = more signal, called active from +8 up or from −8 down
# answer = number (no unit)

Worked examples, 5 molecules total:
| molecule | composite Z-score |
| --- | --- |
| C#C[C@H](O[Si](C#CCCCCCC)(C(C)C)C(C)C)c1ccccc1 | 0.364 |
| COC(=O)[C@@]1(Cc2ccccc2)[C@H]2c3cc(C(=O)N(C)C)n(Cc4ccccc4)c3C[C@H]2CN1C(=O)c1ccccc1 | 0.047 |
| C=CCN1C(=O)[C@@]2(O[C@@H](CCO)[C@H]([Si](C)(C)c3ccc(OC)cc3)[C@H]2C)c2cc(N3C(=O)COc4ccccc43)ccc21 | 0.69 |
| COc1ccc([Si](C)(C)[C@H]2[C@H](CC(=O)N3CCC[C@H]3CO)O[C@@]3(C(=O)N(c4ccccc4)c4ccccc43)[C@@H]2C)cc1 | -0.352 |
| C=CC[C@@]1(C(N)=O)N=C(c2ccc(OCCCO)cc2)O[C@@H]1c1ccccc1N=[N+]=[N-] | -0.56 |

Read off the recorded composite Z-score for COc1ccc([Si](C)(C)[C@H]2[C@H](CCO)O[C@@]3(C(=O)N(Cc4cccc(N5C(=O)c6cccc7cccc5c67)c4)c4ccccc43)[C@@H]2C)cc1
0.326

Answer with the recorded composite Z-score for the molecule listed here: NC(=O)[C@]1(Cc2ccccc2)N=C(c2ccc(OCCCO)cc2)O[C@@H]1c1ccccc1
0.702

Return the recorded composite Z-score value; entry: O=C1OCC=C[C@H]2OC34C=CCN(c5ccc6ccccc6c5)C(=O)[C@H]3N(CCO)C(=O)[C@@H]4[C@@H]12 (stereo not given in full)
0.138

Specify measured composite Z-score for [N-]=[N+]=NCc1ccccc1[C@H]1OC(c2ccc(OCCCO)cc2)=N[C@@]1(Cc1ccccc1)C(=O)O .
-0.365

Determine its reported composite Z-score: CN(C)CCCCNC(=O)[C@@H]1C[C@@H]2C(=O)N[C@@H](CCCCN)C(=O)N2[C@@H]1c1cccc(OCCO)c1
0.703

* * *

measuredTarget: Dihydroorotate dehydrogenase (quinone), mitochondrial (Plasmodium falciparum (isolate 3D7)) (UniProt Q08210)
Sequence (Q08210 whole entry, looked up): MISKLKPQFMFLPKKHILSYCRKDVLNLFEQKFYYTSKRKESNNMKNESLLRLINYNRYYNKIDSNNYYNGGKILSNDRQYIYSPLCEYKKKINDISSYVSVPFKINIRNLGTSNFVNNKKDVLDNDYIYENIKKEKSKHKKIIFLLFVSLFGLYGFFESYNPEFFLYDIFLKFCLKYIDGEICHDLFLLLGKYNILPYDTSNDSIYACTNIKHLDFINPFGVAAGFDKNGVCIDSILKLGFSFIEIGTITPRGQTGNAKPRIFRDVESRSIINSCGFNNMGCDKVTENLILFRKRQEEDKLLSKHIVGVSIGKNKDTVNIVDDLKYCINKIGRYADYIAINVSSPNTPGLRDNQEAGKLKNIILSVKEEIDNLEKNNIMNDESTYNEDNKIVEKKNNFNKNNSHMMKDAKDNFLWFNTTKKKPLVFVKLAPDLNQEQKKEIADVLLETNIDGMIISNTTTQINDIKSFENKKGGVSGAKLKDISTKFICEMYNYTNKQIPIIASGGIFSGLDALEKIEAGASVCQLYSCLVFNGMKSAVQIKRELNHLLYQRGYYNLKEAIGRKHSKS
experimentDescription: inhibition of P. falciparum DHODH – biochemical, C-terminal His tag, absorbance 600 nm, primary screen (AID 1175);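 further: recombinant parasite enzyme with a five histidine tag at its C terminus; test concentration not given here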
details: PfDHODH enzyme, DCIP absorbance 600 nm; higher = more signal, called active from +8 up or from −8 down
measuredAttribute: composite z-score
Answer as a number with no unit attached.

| molecule | composite z-score |
| --- | --- |
| O=C1O[C@@H](c2ccccc2)[C@@H](c2ccccc2)N2[C@@H](c3ccccc3OCCO)[C@]3(C(=O)Nc4ccc(C#CC5(O)CCCCCC5)cc43)[C@@H](C(=O)NC[C@H](O)c3ccccc3)[C@H]12 | -0.516 |
| C[N+](C)(C)CCCCNC(=O)[C@H]1C[C@H]2C(=O)N3CCC[C@H]3C(=O)N2[C@H]1c1ccc(O)cc1 | -30.3 |
| CCOC(=O)C[C@H]1[C@H](OC(=O)c2ccc(C(=O)c3ccccc3)cc2)[C@@H](NC(=O)c2ccc3ccccc3n2)c2cc(OCCCO)ccc2N1C(=O)c1ccc2ccccc2n1 | 0.681 |
| O=C1O[C@@H](c2ccccc2)[C@@H](c2ccccc2)N2[C@@H](c3ccc(O)cc3)[C@]3(C(=O)Nc4ccc(C#CCCO)cc43)[C@@H](C(=O)N3CCCCCCC3)[C@H]12 | 1.29 |
| C=CCN1C(=O)[C@]2(Cc3ccccc31)N=C(c1ccc(OCCCO)cc1)O[C@@H]2c1ccccc1 | -0.699 |
| CCCNC(=O)[C@@]1(C)c2ccccc2C(=O)N(Cc2ccc(OC(F)(F)F)cc2)[C@H]1c1ccc(CO)cc1 | 0.263 |

Return composite z-score (reported value) for this molecule: COC(=O)[C@@]1(Cc2ccccc2)[C@H]2c3cc(C(=O)N(C)C)n(Cc4cc(F)c(F)c(F)c4)c3C[C@H]2CN1C(=O)c1ccccc1
-0.258

Quote composite z-score reported for O=C1c2ccccc2[C@@]2(Cc3ccccc3N(Cc3ccccc3)C2=O)[C@H](c2ccc(CO)cc2)N1Cc1ccccc1C(F)(F)F please.
-4.41

Quickly give me recorded composite z-score for O=C1OCCC/C=C\[C@H]2OC34C=CCN(CCN5CCOCC5)C(=O)[C@H]3N(CCO)C(=O)[C@@H]4C12 (stereo partly drawn)
0.71
